tested on: NCI-H322M lung; experiment: NCI-60 one-dose screen, 48 h (100 = growth as untreated, 0 = no growth, -100 = all killed); details: 10 µM unless noted
The panel holds about 83,000 compounds, 20% with a hit somewhere; the sample as a whole holds those more often.
growth overview
REPORTED PROPERTY: growth (%)

CHEM SMILES: Clc1ccc(OCc2nc(-c3ccccc3)n[nH]2)c(Cl)c1
UNIT TAG: %
NUMERIC READOUT: 101
--
CHEM SMILES: COc1ccc(-c2nn(-c3ccc(NC(=O)Nc4ccc(Cl)c(Cl)c4)cc3)cc2-c2ccncc2)cc1Cl
UNIT TAG: %
NUMERIC READOUT: 47.2
--
CHEM SMILES: COc1cc(NC(=O)C#Cc2ccccc2)c(OC)cc1Cl
UNIT TAG: %
NUMERIC READOUT: 93.2
--
CHEM SMILES: COc1ccc(CCNC=O)cc1OC
UNIT TAG: %
NUMERIC READOUT: 96.4

---

test system: MDA-MB-435 melanoma; assay: NCI-60 one-dose screen, 48 h (100 = growth as untreated, 0 = no growth, -100 = all killed); conditions: 10 µM unless noted
The panel holds about 83,000 compounds, 20% with a hit somewhere; the sample as a whole holds those more often.
growth overview

COMPOUND: COc1ccc(OC)c(NCC(=O)n2nc(/C=C\c3ccc(O)c(OC)c3)cc2/C=C\c2ccc(O)c(OC)c2)c1
SYSTEM: MDA-MB-435 melanoma
growth [%]: 5.88
//
COMPOUND: CN1C(=O)C2(NN=C(c3cccc4ccccc34)S2)c2ccccc21 (stereo unspecified)
SYSTEM: MDA-MB-435 melanoma
growth [%]: 57.8
//
COMPOUND: CN(C)c1ccc2cc(-c3nc4ccccc4s3)c(N)nc2c1
SYSTEM: MDA-MB-435 melanoma
growth [%]: 5.06
//
COMPOUND: C=C1C(=O)O[C@H]2[C@H]1CC/C(COC(=O)OC/C1=C/CC[C@@]3(C)O[C@H]3[C@H]3OC(=O)[C@@H](CN(C)C)[C@@H]3CC1)=C\CC[C@@]1(C)O[C@@H]21
SYSTEM: MDA-MB-435 melanoma
growth [%]: 2.87
//
COMPOUND: C=C1C(=O)O[C@H]2[C@H]1CC/C(COC(=O)c1ccc(Br)cc1)=C\CC[C@@]1(C)O[C@@H]21
SYSTEM: MDA-MB-435 melanoma
growth [%]: -35.4
//
COMPOUND: O=C(Nc1ccc(-n2ccc3c(NC(=O)c4ccccc4)ncnc32)cc1)c1ccc(Cl)c(C(F)(F)F)c1
SYSTEM: MDA-MB-435 melanoma
growth [%]: 18.2
//
COMPOUND: CCOc1ccc(-n2c(-c3cc(OC)c(OC)c(OC)c3)nnc2-c2ccc(OC)cc2N)cc1
SYSTEM: MDA-MB-435 melanoma
growth [%]: 81.3
//
COMPOUND: COc1ccc(/C=N/C2=NNC(C)(c3ccccc3O)N2C(Cc2c[nH]c3ccccc23)C(=O)O)cc1 (stereo unspecified)
SYSTEM: MDA-MB-435 melanoma
growth [%]: 3.69
//
COMPOUND: CN1CCN(CC(O)COc2c(Br)c(Br)c(Br)c3c2OC(C)(C)C3)CC1 (stereo unspecified)
SYSTEM: MDA-MB-435 melanoma
growth [%]: 18.7
//
COMPOUND: COc1cc2nc(C(=O)N3CCCCC3)cc(Nc3ccccc3)c2cc1OC
SYSTEM: MDA-MB-435 melanoma
growth [%]: 104
//
COMPOUND: COc1ccc(/C(Cl)=N/N=C(\Cl)c2cc(OC)c(OC)c(OC)c2)cc1OC(C)=O
SYSTEM: MDA-MB-435 melanoma
growth [%]: 99.9
